Tested on: YAP-TEAD
Assay: Luciferase assay of YAP-TEAD binding inhibition (TEAD luciferase reporter 8XGTIIC in HEK293T cells)
Type: cell-based
Settings: 10 μM, 24 hours, luciferase normalized with β-galactosidase

COMPOUND: COCCCN1C(=O)c2cccc3c(NC(=O)C4CCCN(S(=O)(=O)c5sc6ccc(Cl)cc6c5C)C4)ccc1c23 (stereo not shown)
Inhibition(%): 58

COMPOUND: COCCCN1C(=O)c2cccc3c(NC(=O)C4CCCN(S(=O)(=O)c5ccc6c(c5)CCO6)C4)ccc1c23 (stereo not shown)
Inhibition(%): 87

COMPOUND: COCCCN1C(=O)c2cccc3c(NC(=O)C4CCCN(S(=O)(=O)c5ccc6c(c5)OCO6)C4)ccc1c23 (stereo not shown)
Inhibition(%): 63

COMPOUND: COCCCN1C(=O)c2cccc3c(NC(=O)C4CCCN(S(=O)(=O)c5c(C)noc5C)C4)ccc1c23 (stereo not shown)
Inhibition(%): 56

COMPOUND: COCCCN1C(=O)c2cccc3c(NC(=O)C4CCCN(S(=O)(=O)c5ccc(F)cc5)C4)ccc1c23 (stereo not shown)
Inhibition(%): 88

COMPOUND: N#CCCCN1C(=O)c2cccc3c(NC(=O)C4CCCCN4S(=O)(=O)c4cccs4)ccc1c23 (stereo not shown)
Inhibition(%): 65

COMPOUND: COCCCN1C(=O)c2cccc3c(NC(=O)C4CCCCN4S(=O)(=O)c4ccc(-c5ccccc5)cc4)ccc1c23 (stereo not shown)
Inhibition(%): 77
